Provide the reported log10(IC50) of each item.
Assay: Inhibition of Trypanosoma cruzi trans-sialidase containing catalytic domain (N58F, R200K) and lectin-like domain (S495 K, V496G, E520K, D593G, I597D, H599R) mutation expressed in Escherichia coli JM109 assessed as MuNANA substrate hydrolysis in presence of 0.1% Triton X-100 by discontinuous fluorimetric assay
Units before log transform: µM; reported quantity: IC50; transform: log10.

Example entries and their recorded answers appear below.
O=C(O)c1cc(O)c2c(c1)C(=O)c1cccc(O)c1C2=O [RHEIN] :: 1.15
O=c1c(-c2ccc(O)cc2)coc2cc(O)cc(O)c12 [GENISTEIN] :: 2.36
COc1cc(O)c2c(=O)cc(-c3ccc(O)cc3)oc2c1 [GENKWANIN] :: 2.15
O=c1c(O)c(-c2ccc(O)cc2)oc2cc(O)cc(O)c12 [KAEMPFEROL] :: 2.04
O=c1cc(-c2ccc(O)cc2)oc2cc(O)c(O)c(O)c12 [SCUTELLAREIN] :: 1.70
O=c1cc(-c2ccc(O)c(O)c2)oc2cc(O)cc(O)c12 [LUTEOLIN] :: 1.34

Can you give me log10(IC50) for all of these, one by one?
1. O=c1cc(-c2cc(O)c(O)c(O)c2)oc2cc(O)cc(O)c12 [TRICETIN]
2. O=C1c2cccc(O)c2C(=O)c2c(O)cccc21 [DANTHRON]
3. O=c1cc(-c2ccccc2O)oc2cc(O)cc(O)c12
4. O=c1cc(-c2ccccc2)oc2cc(O)c(O)c(O)c12 [BAICALEIN]
5. O=c1cc(-c2ccccc2)oc2cc(O)cc(O)c12 [CHRYSIN]
6. O=C(O)c1ccc2c(c1)C(=O)c1ccccc1C2=O

Result:
[1.59, 2.85, 2.56, 2.00, 2.53, 2.63]

So for O=c1c(O)c(-c2cc(O)c(O)c(O)c2)oc2cc(O)cc(O)c12 [MYRICETIN] , the logged log10(IC50) turned out to be 1.23
